measurement_target: recombinant human mPGES-1 (Homo sapiens (Human))
Sequence (O14684 whole entry): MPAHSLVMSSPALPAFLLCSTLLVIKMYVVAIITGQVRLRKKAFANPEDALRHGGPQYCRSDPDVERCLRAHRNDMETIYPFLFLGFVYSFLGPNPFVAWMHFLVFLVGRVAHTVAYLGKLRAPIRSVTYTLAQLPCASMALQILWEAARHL
assay_overview: mPGES-1 enzyme assay (HTRF detection of PGE2)
Type: biochemical
measurement_setup: recombinant human mPGES-1 microsomes, PGH2 2 μM, 60 seconds; read-out: mPGES-1 inhibitory effect IC50 in the enzyme assay
observable: IC50 (nM)

Below, each entry is followed by its recorded IC50 result.
- Cn1c(Nc2c(Cl)ccc(CNC(=O)[C@@](C)(O)C(F)(F)F)c2Cl)nc2cc(C(=O)Nc3cccc(C(F)(F)F)n3)c(N3CCC(C(F)(F)F)CC3)cc21 [Example 243]: 2.9
- Cn1c(Nc2c(Cl)ccc(CNC(=O)C(C)(C)C)c2Cl)nc2cc(C(=O)NCC(F)(F)F)c(N3CCC(F)(F)C3)cc21 [Example 26]: 3

P = Cn1c(Nc2c(F)ccc(CNC(=O)C(C)(C)C)c2F)nc2cc(C(=O)N[C@H]3CC[C@H](C(F)(F)F)CC3)c(N3CCC(F)CC3)cc21 [Example 12]
Q = Cn1c(Nc2c(Cl)ccc(CNC(=O)C(C)(C)C(F)(F)F)c2Cl)nc2cc(C(=O)Nc3ccc(F)c(Cl)c3)c(N3CCC(C(F)(F)F)CC3)cc21 [Example 232]
Ask: Identify the entry with the smaller IC50: P or Q . Pick one; state its label.
Reply: Q
(Q: 1.7 nM, P: 3 nM)
